# targetOrTestSystem: Factor X (FX), P00742
# Sequence (P00742 whole entry, looked up): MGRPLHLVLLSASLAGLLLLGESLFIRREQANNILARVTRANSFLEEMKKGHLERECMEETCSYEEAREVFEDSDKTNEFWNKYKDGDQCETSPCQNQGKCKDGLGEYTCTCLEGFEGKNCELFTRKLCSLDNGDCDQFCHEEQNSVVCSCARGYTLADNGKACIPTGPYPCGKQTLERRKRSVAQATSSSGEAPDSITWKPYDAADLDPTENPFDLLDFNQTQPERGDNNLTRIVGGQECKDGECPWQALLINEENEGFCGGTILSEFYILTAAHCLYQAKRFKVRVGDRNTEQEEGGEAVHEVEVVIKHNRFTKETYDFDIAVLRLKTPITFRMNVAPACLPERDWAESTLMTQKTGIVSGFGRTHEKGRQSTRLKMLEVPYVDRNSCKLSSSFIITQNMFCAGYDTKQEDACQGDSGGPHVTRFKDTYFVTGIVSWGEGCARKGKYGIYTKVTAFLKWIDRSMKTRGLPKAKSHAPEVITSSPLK
A collection of proteins and their measured % of WT kcat/KM
Please respond with the number in % and leave the unit unwritten.

Worked cases, % of WT kcat/KM given:
protein	experimentalEndpoint	unitString	assayResult
FIXa variant K228N/R338E/R403E (protein) chain 1: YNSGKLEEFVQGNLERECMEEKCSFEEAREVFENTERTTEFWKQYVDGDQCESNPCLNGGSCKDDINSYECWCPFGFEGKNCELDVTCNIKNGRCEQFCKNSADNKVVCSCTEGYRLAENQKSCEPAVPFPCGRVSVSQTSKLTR chain 2: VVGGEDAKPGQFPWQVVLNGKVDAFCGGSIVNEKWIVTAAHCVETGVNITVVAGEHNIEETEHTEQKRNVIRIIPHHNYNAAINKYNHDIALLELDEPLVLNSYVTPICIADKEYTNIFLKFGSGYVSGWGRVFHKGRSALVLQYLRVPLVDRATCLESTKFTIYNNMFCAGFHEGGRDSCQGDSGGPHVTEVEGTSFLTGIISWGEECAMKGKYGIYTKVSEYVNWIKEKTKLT	% of WT kcat/KM	%	105
FIXa-Y155F/R318Y/T343R/E410N (protein) chain 1: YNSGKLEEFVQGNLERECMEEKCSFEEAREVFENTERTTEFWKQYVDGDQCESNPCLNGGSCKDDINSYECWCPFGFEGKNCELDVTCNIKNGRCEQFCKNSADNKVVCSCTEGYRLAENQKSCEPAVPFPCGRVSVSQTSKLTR chain 2: VVGGEDAKPGQFPWQVVLNGKVDAFCGGSIVNEKWIVTAAHCVETGVKITVVAGEHNIEETEHTEQKRNVIRIIPHHNYNAAINKYNHDIALLELDEPLVLNSYVTPICIADKEYTNIFLKFGSGYVSGWGRVFHKGYSALVLQYLRVPLVDRATCLRSTKFRIYNNMFCAGFHEGGRDSCQGDSGGPHVTEVEGTSFLTGIISWGEECAMKGKYGIYTKVSRYVNWIKNKTKLT	% of WT kcat/KM	%	326
FIXa-K247N/N249S/R318Y/R338E/E410N (protein) chain 1: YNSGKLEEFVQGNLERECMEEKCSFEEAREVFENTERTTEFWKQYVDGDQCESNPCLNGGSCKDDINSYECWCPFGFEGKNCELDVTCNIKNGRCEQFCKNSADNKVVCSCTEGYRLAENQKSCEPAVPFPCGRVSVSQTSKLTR chain 2: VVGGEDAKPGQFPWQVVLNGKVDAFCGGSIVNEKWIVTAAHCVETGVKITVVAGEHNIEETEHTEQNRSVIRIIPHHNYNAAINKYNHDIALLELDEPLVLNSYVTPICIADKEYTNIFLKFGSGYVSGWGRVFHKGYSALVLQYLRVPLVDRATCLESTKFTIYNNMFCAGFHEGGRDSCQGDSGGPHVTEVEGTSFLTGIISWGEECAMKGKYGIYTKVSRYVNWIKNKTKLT	% of WT kcat/KM	%	501

input: Which value of % of WT kcat/KM has been reported for FIXa-Y155F/T343R/R403E/E410N (protein) chain 1: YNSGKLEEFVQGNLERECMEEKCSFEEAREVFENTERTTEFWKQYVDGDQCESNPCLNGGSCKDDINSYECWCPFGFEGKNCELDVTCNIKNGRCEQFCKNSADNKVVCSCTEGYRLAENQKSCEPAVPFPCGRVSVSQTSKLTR chain 2: VVGGEDAKPGQFPWQVVLNGKVDAFCGGSIVNEKWIVTAAHCVETGVKITVVAGEHNIEETEHTEQKRNVIRIIPHHNYNAAINKYNHDIALLELDEPLVLNSYVTPICIADKEYTNIFLKFGSGYVSGWGRVFHKGRSALVLQYLRVPLVDRATCLRSTKFRIYNNMFCAGFHEGGRDSCQGDSGGPHVTEVEGTSFLTGIISWGEECAMKGKYGIYTKVSEYVNWIKNKTKLT in the records?
output: 321

input: Which value of % of WT kcat/KM has been reported for FIXa-R318Y/R338E/T343R (protein) chain 1: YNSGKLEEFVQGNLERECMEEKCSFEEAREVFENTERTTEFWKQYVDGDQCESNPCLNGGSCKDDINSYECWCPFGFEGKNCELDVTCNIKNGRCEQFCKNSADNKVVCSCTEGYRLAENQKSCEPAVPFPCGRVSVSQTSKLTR chain 2: VVGGEDAKPGQFPWQVVLNGKVDAFCGGSIVNEKWIVTAAHCVETGVKITVVAGEHNIEETEHTEQKRNVIRIIPHHNYNAAINKYNHDIALLELDEPLVLNSYVTPICIADKEYTNIFLKFGSGYVSGWGRVFHKGYSALVLQYLRVPLVDRATCLESTKFRIYNNMFCAGFHEGGRDSCQGDSGGPHVTEVEGTSFLTGIISWGEECAMKGKYGIYTKVSRYVNWIKEKTKLT in the records?
output: 324

input: Which value of % of WT kcat/KM has been reported for FIXa-R318Y/R338E/R403E/E410S (protein) chain 1: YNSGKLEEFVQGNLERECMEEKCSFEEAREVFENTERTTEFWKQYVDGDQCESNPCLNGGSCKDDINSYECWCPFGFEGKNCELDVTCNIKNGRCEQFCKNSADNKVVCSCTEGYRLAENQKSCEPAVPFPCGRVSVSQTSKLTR chain 2: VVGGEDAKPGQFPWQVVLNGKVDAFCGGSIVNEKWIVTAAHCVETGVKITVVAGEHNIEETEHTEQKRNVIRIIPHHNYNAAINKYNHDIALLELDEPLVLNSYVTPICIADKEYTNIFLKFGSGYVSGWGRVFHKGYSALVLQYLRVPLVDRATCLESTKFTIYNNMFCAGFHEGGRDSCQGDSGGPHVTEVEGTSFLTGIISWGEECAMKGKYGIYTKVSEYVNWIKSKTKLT in the records?
output: 458

input: Which value of % of WT kcat/KM has been reported for FIXa-Y155F/R318Y/R338E/T343R (protein) chain 1: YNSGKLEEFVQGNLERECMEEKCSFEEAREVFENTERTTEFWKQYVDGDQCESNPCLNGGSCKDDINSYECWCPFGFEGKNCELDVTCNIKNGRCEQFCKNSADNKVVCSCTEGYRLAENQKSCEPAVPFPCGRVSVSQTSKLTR chain 2: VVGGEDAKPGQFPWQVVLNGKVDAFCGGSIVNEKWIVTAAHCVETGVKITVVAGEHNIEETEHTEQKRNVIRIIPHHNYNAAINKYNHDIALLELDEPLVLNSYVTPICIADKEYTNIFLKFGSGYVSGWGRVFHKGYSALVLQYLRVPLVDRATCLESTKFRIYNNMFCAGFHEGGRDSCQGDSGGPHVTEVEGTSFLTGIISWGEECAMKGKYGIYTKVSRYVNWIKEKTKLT in the records?
output: 771
